# study_target: HIV-1 RT (Human immunodeficiency virus type 1 group M subtype B)
# Construct: The reaction mixture consisted of template/primer complex, 2′-deoxy-nucleotide-5′-triphosphates (dNTPs), and RT enzyme in lysis buffer; purchased Roche Applied Science, Mannheim, Germany
# method: HIV-1 RT inhibition assay (Roche RT kit, colorimetric ELISA)
# Format: biochemical
# particulars: read-out: Inhibitory activities (%) against HIV-1 RT
Threshold check on inhibition at 1 µM: at or above 30% gives Condition met, strictly below gives Condition not met.

* Cc1cc(C#N)cc(C)c1Oc1cc(Nc2ccc(C#N)cc2)c2ccccc2n1 | Condition met
* N#Cc1ccc(Nc2cc(Oc3ccc(C=O)cc3)c3ccccc3n2)nc1 | Condition not met
* Cc1cc(C=O)cc(C)c1Oc1cc(Nc2ccc(C#N)cn2)nc2ccccc12 | Condition met
* Cc1cc(C#N)cc(C)c1Oc1cc(Oc2c(C)cc(C#N)cc2C)c2ccccc2n1 | Condition met
* O=Cc1ccc(Oc2cc(-c3cc(Oc4ccc(C=O)cc4)c4ccccc4n3)nc3ccccc23)cc1 | Condition not met
* Cc1cc(/C=C/C#N)cc(C)c1Oc1cc(Nc2ccc(C#N)cc2)nc2ccccc12 [Compound 9b-trans] | Condition met
* Cc1cc(/C=C/C#N)cc(C)c1Nc1ccnc(Nc2ccc(C#N)cc2)n1 [RPV, rilpivirine, reference compound] | Condition met
* Cc1cc(/C=C\C#N)cc(C)c1Oc1cc(Nc2ccc(C#N)cc2)nc2ccccc12 [Compound 9b-cis] | Condition met
* Cc1cc(C#N)cc(C)c1Oc1cc(Nc2ccc(C#N)cn2)nc2ccccc12 | Condition met
* Cc1ccnc2c1NC(=O)c1cccnc1N2C1CC1 [NVP, nevirapine, reference compound] | Condition met
* O=Cc1ccc(Oc2cc(Oc3ccc(C=O)cc3)c3ccccc3n2)cc1 | Condition not met
* N#Cc1ccc(Nc2cc(Oc3ccc(C#N)cc3)nc3ccccc23)cc1 | Condition not met
* Cc1cc(/C=C/C#N)cc(C)c1Oc1cc(Nc2ccc(C#N)cn2)nc2ccccc12 [Compound 10b-trans] | Condition met
* Cc1cc(C=O)cc(C)c1Oc1cc(Oc2c(C)cc(C=O)cc2C)c2ccccc2n1 | Condition met
* Cc1cc(C=O)cc(C)c1Oc1cc(Nc2ccc(C#N)cc2)c2ccccc2n1 | Condition met
* Cc1cc(C=CC#N)cc(C)c1Oc1cc(Nc2ccc(C#N)cc2)c2ccccc2n1 [Compound 11b] | Condition met
* N#Cc1ccc(Oc2cc(Nc3ccc(C#N)cn3)nc3ccccc23)cc1 | Condition not met

----------
readout_label: melting point

* Cc1cc(C#N)cc(C)c1Oc1cc(Oc2c(C)cc(C#N)cc2C)c2ccccc2n1 [Compound 4d] | 201.8 to 202.4 °C
* O=Cc1ccc(Oc2cc(Oc3ccc(C=O)cc3)c3ccccc3n2)cc1 [Compound 4a, 2,4-di-(4′-formylphenoxy)-quinoline] | 164.9 to 165.5 °C
* Cc1cc(C=O)cc(C)c1Oc1cc(Oc2c(C)cc(C=O)cc2C)c2ccccc2n1 [Compound 4b] | 120.5 to 121 °C
* O=Cc1ccc(Oc2cc(-c3cc(Oc4ccc(C=O)cc4)c4ccccc4n3)nc3ccccc23)cc1 [Compound 7a] | 288.7 to 289.3 °C

----------
# Test system: A549 (lung carcinoma)
# method: In vitro cytotoxicity (MTT)
# particulars: at 50 µg/mL; inactive (IC50 ≥ 50 µg/mL)
Marks after values point to notes of the source that are not given here.
readout_label: %C percentage cytotoxicity A549

• Cc1cc(/C=C\C#N)cc(C)c1Oc1cc(Nc2ccc(C#N)cc2)nc2ccccc12 [Compound 9b-cis] = %C = 1.0 ^c
• Cc1cc(/C=C/C#N)cc(C)c1Oc1cc(Nc2ccc(C#N)cn2)nc2ccccc12 [Compound 10b-trans] = %C = 1.0 ^c

Source of measurements: paper PMC8781960
